Items are presented alongside their recorded log10 of GI50.
- method: Growth inhibition of VHL-null human RCC4 cells after 4 days by XTT assay
- Type: functional
- measurement_setup: RCC4, 96 h
log10 GI50, µM

Fill in the blank: the reported log10 of GI50 of Clc1cccc(Nc2nc(-c3ccncc3)cs2)c1 is ____. 0.48

* * *

- method: Growth inhibition of VHL-null human RCC4 cells after 4 days by XTT assay
- Format: functional
- measurement_setup: RCC4, 96 h
Param label: returns Y when GI50 < 6 µM, returns N otherwise, including exact equality.

Example entries begin here.
[[record]]
structure_smiles = "CCc1cccc(Nc2nc(-c3ccncc3)cs2)c1"
classification = "Y"

[[record]]
structure_smiles = "Oc1ccc(Nc2nc(-c3ccncc3)cs2)cc1"
classification = "Y"

[[record]]
structure_smiles = "CCOC(=O)c1sc(Nc2ccc3c(c2)CCC3)nc1-c1ccncc1"
classification = "N"

[[record]]
structure_smiles = "Cc1ccc(C(=O)Nc2nc(-c3ccncc3)cs2)cc1"
classification = "N"

[[record]]
structure_smiles = "Oc1cccc(Nc2nc(-c3ccncc3)cs2)c1"
classification = "N"


Input Cc1cccc(Nc2nc(-c3ccncc3N)cs2)c1 ; condition: GI50 strictly below 6 µM. Does it hold? N

Threshold test, GI50 < 6 µM: Cc1cc(C)cc(Nc2nc(-c3ccncc3)cs2)c1 Y

Answer whether the compound FC(F)(F)c1ccc(Nc2nc(-c3ccncc3)cs2)cc1 has GI50 strictly less than 6 µM N

Given CN(C)CCc1ccc(Nc2nc(-c3ccncc3)cs2)cc1 , is recorded GI50 strictly lower than 6 µM? N

Strictly below 6 µM in GI50? Cc1cccc(Nc2nc(-c3ccccn3)cs2)c1 N

Please indicate whether the reported GI50 of CCc1cc(-c2csc(Nc3cccc(C)c3)n2)ccn1 is strictly below 6 µM. N

Below 6 µM on GI50? Entry Cc1cccc(Nc2nc(-c3ccncc3)cs2)c1 Y

I wonder whether N#Cc1cccc(Nc2nc(-c3ccncc3)cs2)c1 has GI50 below 6 µM. Can you tell? N

Record Cc1cccc(C)c1Nc1nc(-c2ccncc2)cs1 : is its GI50 strictly below 6 µM? N

Hey, just so you know, these numbers are from ChEMBL document CHEMBL1154748.
